What amyloid nucleation score was measured for each of the following?
experiment: amyloid nucleation score (Sup35N fusion, yeast selection) (log enrichment); library NNK2; higher = more nucleation; inactive = no reads after selection;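 further: zero at mode of non-aggregating sequences after 7 days selection at 30°C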
Give bare numbers.

TPLTVYDFPYNEGCCAV    1.7
VCIVDLVS    -0.203
YWFARCHFSPAMRIYYRTRA    -0.171
EGNYFSGIS    -1.2
SWTSIVQIVILCGFRQWLAR    0.076
LYREDGNMSDH    1.82

For each of the items listed, what is its amyloid nucleation score?
1. KMSELWFVIKPWFWIMGLEK
2. NYILSMLCKMNARCLVTWRI
3. YVVKWPCGLTPCALPTPIRQ
4. FVFHWLFVSSRACILHPVVW
5. IQWFIWN
6. PNIKNIT

Result block:
-0.403
0.712
0.969
0.604
6.81
2.38

====

What amyloid nucleation score was measured for each of the following?
test: amyloid nucleation score (Sup35N fusion, yeast selection) (log enrichment); library NNK2; higher = more nucleation; inactive = no reads after selection
One number for each entry.

TLTILRVTCPLFSDGIMFKR    0.609
LHSATNG    0.208
NNPWFCGGSLWLYGSQYSPS    3.23
PWCTWSFVADLENSYRRWVR    2.57
DLWRLMEIFMRSMRWHGITT    -0.456
KFSLDF    -0.837

For each of the items listed, what is its amyloid nucleation score?
1. SDSFKDPTWREDNRGW
2. NHMKFAGLGGCYSYCTFLVD
3. SHRMTSNNTNSNLLGRKTGS
4. THYNVGLINNIINNLILVYI
5. YFCRMMCLNRWIGRLLFRCN
6. HVSKAVNLG
7. LADTLVSESKYKWLF
8. IGFDFRTA

Result block:
1. 2.54
2. 6.59
3. -0.139
4. 4.52
5. 0.775
6. 0.52
7. -0.032
8. 0.418

====

test: amyloid nucleation score (Sup35N fusion, yeast selection) (log enrichment); library NNK2; higher = more nucleation; inactive = no reads after selection
Readout Name: amyloid nucleation score
Answers are plain numbers.

See these solved cases before continuing.
PMMWESESYPLIF    -0.268
KSESLLPLNWAHARALIHRA    1.1
GSPAVGEGG    0.697

For each of the items listed, what is its amyloid nucleation score?
1. VYCSSCSVFLLCVKNLSWCV
2. RVTFNFRGMYKLIIMGGVPP
3. FGMNDRRH
4. SIMGRIKIAIHVLRS
5. TSCSTTAALEVNIRMTDVGV
6. ITISII
7. GLYIEKARQRYPRSQHLIAM

Result block:
1: 8.66; 2: 6.49; 3: -0.381; 4: 4.12; 5: 1.59; 6: 0.044; 7: -0.419

For each of the items listed, what is its amyloid nucleation score?
1. YLGTDGFNDGLVGLTTNIMS
2. KRLVEAVKFWWQVRNGLKVR
3. LESYSQCTLTHSNCVLTDEC
4. LYKSSQKKPQTLNDFQIAMW
5. AVGYVMLMEMEALPISMWRG

Result block:
1: -0.798; 2: 0.518; 3: 0.909; 4: 0.193; 5: 7.03

For each of the items listed, what is its amyloid nucleation score?
1. LGHHIVFAVTPKWTYDDDIK
2. LYSCWVSCLEGRLVCGPLTH
3. LGGWLNGKGDPSMTASTSAS
4. PLERKRLSHCRWLGRRRLGG

Result block:
1. 0.679
2. -0.65
3. 0.799
4. 1

For each of the items listed, what is its amyloid nucleation score?
1. QSRSYFRRGVTSCLHPGWET
2. LPHKSLFDPLWRIGKILIQH
3. EFRGWNI
4. SAFYSDAL
5. NVKTKLCAGSKYSFPF

Result block:
0.452
0.034
-0.587
1.08
0.213

src = the supplement of paper PMC12042874
